Reference source: patent US9963448B2

// pIC50 lookup, one value per entry
MEASUREMENT TARGET: mPAD4 (Mus musculus, UniProt Q9Z183)
Sequence (Q9Z183 whole entry): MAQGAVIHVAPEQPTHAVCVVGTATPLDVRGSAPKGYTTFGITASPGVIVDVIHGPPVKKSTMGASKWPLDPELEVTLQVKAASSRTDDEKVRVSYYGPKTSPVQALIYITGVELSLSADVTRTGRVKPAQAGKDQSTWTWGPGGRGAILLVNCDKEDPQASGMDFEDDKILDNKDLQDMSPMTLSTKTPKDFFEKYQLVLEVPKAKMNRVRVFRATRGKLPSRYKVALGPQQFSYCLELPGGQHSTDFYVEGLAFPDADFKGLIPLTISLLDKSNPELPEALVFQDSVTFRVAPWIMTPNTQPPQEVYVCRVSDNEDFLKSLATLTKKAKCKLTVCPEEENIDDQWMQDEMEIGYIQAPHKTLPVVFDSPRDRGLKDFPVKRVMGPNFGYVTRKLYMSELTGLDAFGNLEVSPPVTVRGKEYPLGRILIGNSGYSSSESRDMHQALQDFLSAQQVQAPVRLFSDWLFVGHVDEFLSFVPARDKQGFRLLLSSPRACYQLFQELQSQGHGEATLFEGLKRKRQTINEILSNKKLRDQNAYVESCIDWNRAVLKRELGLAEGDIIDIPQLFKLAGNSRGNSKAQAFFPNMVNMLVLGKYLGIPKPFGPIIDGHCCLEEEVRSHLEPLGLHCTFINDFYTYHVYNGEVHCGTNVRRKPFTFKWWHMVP
TEST PROTOCOL: mPAD4 RFMS PAD4 inhibition assay
Format: biochemical
RUN CONDITIONS: mPAD4, RFMS readout; read-out: mPAD4 RFMS IC50
pIC50: −log10 of the molar value.

Cn1c(-c2cc3cccnc3n2CC2CC2)nc2cc(C(=O)N3C[C@@H](N)C[C@H](F)C3)cc(OC(F)F)c21 [Compound I-73]; > 6.00
CCn1c(-c2nc3cc(C(=O)N4CCC[C@@H](N)C4)cc(F)c3n2C)cc2cccnc21 [Compound I-164]; 5.00 to 5.30
COc1cc(C(=O)N2C[C@@H]3COC[C@]3(CN)C2)cc2nc(-c3cc4cccnc4n3CC3CC3)n(C)c12 [Compound I-126]; < 5.00

Param item = COc1cc(C(=O)N2C[C@H]3CC[C@@H]2[C@@H]3N)cc2nc(-c3cc4cccnc4n3CC3CC3)n(CC(F)F)c12 [Compound I-234] ; retrieve measured pIC50.
5.30 to 6.00
